These data points were gathered from the supplement of paper PMC9170038.

system: MS2 coat protein; experiment: apparent KD of MS2 coat protein; higher = weaker reporter binding; conditions: Eterna round: R107; input ligand: theophylline 2 mM
Tag: condition met if measured apparent KD of MS2 coat protein is not below 40 nM, condition not met if it is.

Field: example entries. Status: answers known.
GUGUGCGGCACGGCCGCCACUGCGGUGGUGUGACAUGAGGAUCACCCAUGUUGUCAUGCGGCCCUUAGGACCGGGUGGCGUGCAC [#1 Exclusion - Tryptophan B Attempt #17 (HarryS)] ... condition met
AGCCGGAUUACGGCCGCCACUGUAGACGUGACGAAAGUCGCGUCAACAUGAGGAUCACCCAUGUACAGGACCGGGUGGUCCGGCA [Omei Trp B SS A v3] ... condition not met
GACAUGAGGAUCACCCAUGUUUGCUAUGAAGGAGCGUCGGAAAUGACAGGUAGGUCGCAUAGUAGACCUUGUAUUUCGUGUGUUU [#01 Exclusion - Arginine A] ... condition not met
GAUACUAUGAAAGUAGUAUCUACGUGUUGACGAGGACCGGUACGGCCGCCACUCGACAUGAGGAUCACCCAUGUAUAGAAUAUGU [TrypA_2] ... condition not met
AACAUGAGGAUCACCCAUGUCCUCGUGUUCCGAGGACCGGUACGGCCGCCACUCGGUCCUCGCGAGGAUGGUCAAAGACUAUCCA [Omei Trp A SS B v3] ... condition met

Here is another sequence to look at.
Input line: In plain terms: is recorded apparent KD of MS2 coat protein at least 40 nM for UCACAUGAGGAUCACCCAUGUGUCAGAGAAGGAGCGGCCGCAAGGCCAGGUAGGUCGCUCGGGUAUUGUGAGGUUCACCCGUGUG [#1 Exclusion - Arginine A Attempt #12 (Inspired by cyborg)] ?
Output line: condition met
